Each recorded value in this set is attributed to patent US8796249B2.

# EXPERIMENT: Water solubility
# Format: physicochemical
# ASSAY_CONDITIONS: BA as protonated species, 0.1 M HCl, pH 1; hs = highly soluble, not evaluated
Structures can show the parent of a compound that is named as a salt.
VALUE_TYPE: Ws (water solubility)

- COMPOUND: "CCC1C(O)C2C3CCC(C(C)CC(C)OS(=O)(=O)O)C3(C)CCC2C2(C)CCC(O)CC12 (centres unmarked) [Compound 2A, Sodium Salt]"
  VALUE_TYPE: "Ws (water solubility)"
  RECORDED_RESULT: "hs"
- COMPOUND: "C[C@H](CCC(=O)NCCS(=O)(=O)O)[C@H]1CC[C@H]2[C@@H]3[C@@H](O)C[C@@H]4C[C@H](O)CC[C@]4(C)[C@H]3CC[C@]12C"
  VALUE_TYPE: "Ws (water solubility)"
  RECORDED_RESULT: "hs"
- COMPOUND: "C[C@H](CCC(=O)O)[C@H]1CC[C@H]2[C@@H]3[C@@H](O)C[C@@H]4C[C@H](O)CC[C@]4(C)[C@H]3CC[C@]12C [UDCA, reference compound]"
  VALUE_TYPE: "Ws (water solubility)"
  RECORDED_RESULT: "7.5 µM"
- COMPOUND: "C[C@H](CCC(=O)NCCS(=O)(=O)O)[C@H]1CC[C@H]2[C@@H]3[C@H](O)C[C@@H]4C[C@H](O)CC[C@]4(C)[C@H]3CC[C@]12C"
  VALUE_TYPE: "Ws (water solubility)"
  RECORDED_RESULT: "hs"

Exam item: For the compound shown here, "CC[C@H]1[C@@H](O)[C@@H]2[C@H](C[C@H](O)[C@]3(C)[C@@H]([C@H](C)CCCS(=O)(=O)[O-])CC[C@@H]23)[C@@]2(C)CC[C@@H](O)C[C@@H]12.[Na+]" , give the reported Ws (water solubility).
Marked response: hs
